From: paper PMC4774911

Notes on pIC50 obtained with UniProtKB Q15831.
Sequence (Q15831 whole entry): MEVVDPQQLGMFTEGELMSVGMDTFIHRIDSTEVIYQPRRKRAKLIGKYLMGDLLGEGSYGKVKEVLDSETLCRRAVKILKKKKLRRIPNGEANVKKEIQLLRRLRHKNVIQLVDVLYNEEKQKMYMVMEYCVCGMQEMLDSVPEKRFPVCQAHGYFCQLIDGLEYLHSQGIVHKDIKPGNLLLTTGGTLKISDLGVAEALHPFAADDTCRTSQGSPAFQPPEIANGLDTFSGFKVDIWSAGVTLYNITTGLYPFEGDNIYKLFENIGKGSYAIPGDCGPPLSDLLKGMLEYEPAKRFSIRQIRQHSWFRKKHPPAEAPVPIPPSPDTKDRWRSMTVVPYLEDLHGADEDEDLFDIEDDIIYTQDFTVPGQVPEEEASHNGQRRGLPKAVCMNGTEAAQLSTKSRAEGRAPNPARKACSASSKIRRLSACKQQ
pIC50: −log10 of the molar value.
quantity kind: pIC50

1) CN(C)CC(O)COc1ccc(Nc2ncc([N+](=O)[O-])c(Nc3ccccc3O)n2)cc1.O=C(O)C(F)(F)F (stereo not drawn) [TCMDC-141399]    5.36
2) Cl.NCC1(c2nc(-c3ccc(Cl)c(O)c3)c(-c3ccncc3)[nH]2)CCCCC1 [TCMDC-141154]    5.85
3) CN1CCN(c2ccc(Nc3ncc(C#N)c(Nc4ccccc4C(N)=O)n3)cc2)CC1.Cl [TCMDC-134116]    6.00

###

Target: TP53RK (Homo sapiens, UniProt Q96S44)
Sequence (Q96S44 1-253): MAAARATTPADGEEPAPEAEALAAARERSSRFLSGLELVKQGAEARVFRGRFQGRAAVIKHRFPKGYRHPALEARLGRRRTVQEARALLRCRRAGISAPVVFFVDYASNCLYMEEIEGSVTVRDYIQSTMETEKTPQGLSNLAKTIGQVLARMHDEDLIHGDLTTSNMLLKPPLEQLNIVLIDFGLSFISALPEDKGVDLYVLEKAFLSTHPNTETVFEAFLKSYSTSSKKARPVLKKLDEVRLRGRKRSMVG
Assay: biochemical
Conditions: read-out: KDapp
quantity kind: Kd (µM)

1. CN1CCN(c2ccc(Nc3ncc(C#N)c(Nc4ccccc4C(N)=O)n3)cc2)CC1.Cl    3.77
